The reported numbers originate from PubChem BioAssay (NCATS).

# Test system: CP262
# PROTOCOL_DESCRIPTION: qHTS profiling for inhibitors of Plasmodium falciparum proliferation (AID 504749); note: nearly all actives have a fitted effect of over 60% in size
# SETUP_CONDITIONS: P. falciparum in erythrocytes, SYBR Green DNA, 72 h; series mostly up to 28.7 µM
Results filed as inconclusive are left out. The source made the active and inactive calls. Calls come from the whole dose curve; as a rule, active = well fitted inhibition curve with a large enough effect; inconclusive = small, poorly fitted or top-dose-only effect; inactive = flat fitted curve, though single readings scatter.
Labels: 1 = active, 0 = inactive

>>> class_name("CC(=O)N(O)CCCCCNC(=O)CCC(=O)N(O)CCCCCNC(=O)CCC(=O)N(O)CCCCCN")
0
>>> class_name("Nc1cc(Cl)c(NC2=NCCN2)c(Cl)c1")
0
>>> class_name("CC1=C(C(=O)OC(C)C)C(c2cccc([N+](=O)[O-])c2)C(C(=O)OC2CN(C(c3ccccc3)c3ccccc3)C2)=C(N)N1 (centres undefined)")
1
>>> class_name("CCCCCCCCCCCCCCCCCC(=O)OCC(O)CO (centres undefined)")
0

* * *

activity change, negative = inhibition values by entry
# PROTOCOL_DESCRIPTION: AP1 Signaling Pathway (AID 357);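 note: ME-180 reporter cells stimulated with EGF at its EC50 level; % is set by controls: 0 for no effect and ±100 for the full control effect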
# SETUP_CONDITIONS: ME-180 (cervical carcinoma) AP-1-bla reporter, EGF-induced, beta-lactamase ratio, 5 h; at 38 µM (top of the series)
Records with an inconclusive call do not appear.
REPORTED_PROPERTY: activity change, negative = inhibition (%)

>>> reported_value("CC(C)COC(=O)OCN1C(=O)CN(CCN2CC(=O)N(COC(=O)OCC(C)C)C(=O)C2)CC1=O")
5.55
>>> reported_value("C[N+]1(CCCCC[N+]2(C)CCCC2)CCCC1")
7.2
>>> reported_value("CCCn1c(=O)[nH]c(=O)c2[nH]cnc21")
4.71
>>> reported_value("CNCCC=C1c2ccccc2CCc2ccccc21")
16.2
>>> reported_value("Oc1ccc(O)cc1")
-22.8
>>> reported_value("Oc1cc(O)c2c(c1)O[C@H](c1ccc(O)c(O)c1)[C@H](O)C2")
-5.09
>>> reported_value("Nc1cc(Cl)c(NC2=NCCN2)c(Cl)c1")
2.68
>>> reported_value("O=C1CCC(c2ccc(-n3ccnc3)cc2)=NN1")
14.9

* * *

# MEASURED_TARGET: Voltage-gated inwardly rectifying potassium channel KCNH2 (Homo sapiens) (UniProt Q12809)
# Sequence (Q12809 whole entry, looked up): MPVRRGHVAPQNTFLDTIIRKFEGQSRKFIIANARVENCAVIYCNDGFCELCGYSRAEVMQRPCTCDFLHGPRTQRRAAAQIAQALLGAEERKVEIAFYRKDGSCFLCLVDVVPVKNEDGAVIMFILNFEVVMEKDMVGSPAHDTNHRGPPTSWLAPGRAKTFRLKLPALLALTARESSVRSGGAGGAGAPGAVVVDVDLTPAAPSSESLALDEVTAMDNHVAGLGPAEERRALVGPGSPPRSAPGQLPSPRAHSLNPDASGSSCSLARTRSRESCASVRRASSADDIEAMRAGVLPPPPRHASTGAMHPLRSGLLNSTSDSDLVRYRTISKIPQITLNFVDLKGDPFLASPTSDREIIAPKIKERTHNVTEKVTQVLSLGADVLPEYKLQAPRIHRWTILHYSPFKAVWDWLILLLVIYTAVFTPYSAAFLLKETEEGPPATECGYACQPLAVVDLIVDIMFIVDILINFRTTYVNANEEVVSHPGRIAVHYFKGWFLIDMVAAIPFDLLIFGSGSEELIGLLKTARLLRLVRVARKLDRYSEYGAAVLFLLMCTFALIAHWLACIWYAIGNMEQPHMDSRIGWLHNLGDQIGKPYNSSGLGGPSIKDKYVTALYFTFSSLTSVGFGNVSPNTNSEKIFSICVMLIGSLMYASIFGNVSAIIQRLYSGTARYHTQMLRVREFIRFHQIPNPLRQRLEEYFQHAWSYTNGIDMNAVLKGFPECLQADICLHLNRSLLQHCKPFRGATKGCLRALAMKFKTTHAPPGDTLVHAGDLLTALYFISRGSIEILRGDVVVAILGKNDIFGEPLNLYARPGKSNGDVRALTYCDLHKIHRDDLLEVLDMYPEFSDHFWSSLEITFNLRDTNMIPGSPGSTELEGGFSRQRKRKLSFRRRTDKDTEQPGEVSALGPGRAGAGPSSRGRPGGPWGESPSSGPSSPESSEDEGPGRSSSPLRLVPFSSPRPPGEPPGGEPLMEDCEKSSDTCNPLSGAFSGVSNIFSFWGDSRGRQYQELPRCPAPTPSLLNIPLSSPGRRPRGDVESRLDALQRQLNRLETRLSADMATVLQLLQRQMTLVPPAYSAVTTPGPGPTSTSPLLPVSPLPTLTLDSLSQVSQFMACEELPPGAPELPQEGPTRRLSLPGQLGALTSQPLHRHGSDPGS
# PROTOCOL_DESCRIPTION: qHTS Assay for Small Molecule Inhibitors of the Human hERG Channel Activity (AID 588834);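 note: U2OS cells transduced with hERG by BacMam; top concentration of the series differs between compounds; % is set by controls: 0 for no effect and ±100 for the full control effect; lower thallium flux fluorescence means stronger hERG block; nearly all actives have a fitted effect of over 50% in size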
# SETUP_CONDITIONS: U2OS BacMam hERG, FluxOR thallium flux fluorescence; series mostly up to 46.1 µM
Inconclusive results are not listed. Calls of active or inactive are those of the source. Calls come from the whole dose curve; as a rule, active = well fitted inhibition curve with a large enough effect; inconclusive = small, poorly fitted or top-dose-only effect; inactive = flat fitted curve, though single readings scatter.
REPORTED_PROPERTY: outcome

>>> reported_value("COc1cc2c(cc1OC)[C@@H]1CC(=O)[C@@H](CC(C)C)CN1CC2")
"inactive"
>>> reported_value("Cc1c(F)c(N2CCNC(C)C2)cc2c1c(=O)c(C(=O)O)cn2C1CC1 (stereo not given)")
"inactive"
>>> reported_value("CC(=O)O[C@]1(C(C)=O)CC[C@H]2[C@@H]3C[C@H](C)C4=CC(=O)CC[C@]4(C)[C@H]3CC[C@@]21C")
"inactive"
>>> reported_value("CCN(CC)C(=O)N1CCN(C)CC1")
"inactive"
>>> reported_value("CC1(C)O[C@@H]2C[C@H]3[C@@H]4C[C@H](F)C5=CC(=O)CC[C@]5(C)[C@H]4[C@@H](O)C[C@]3(C)[C@]2(C(=O)CO)O1")
"inactive"

* * *

# Test system: PC26
# PROTOCOL_DESCRIPTION: qHTS profiling for inhibitors of Plasmodium falciparum proliferation (AID 504749); note: nearly all actives have a fitted effect of over 60% in size
# SETUP_CONDITIONS: P. falciparum in erythrocytes, SYBR Green DNA, 72 h; series mostly up to 28.7 µM
Inconclusive results are not listed. Calls of active or inactive are those of the source. Calls follow the shape of the dose curve; as a rule, active = well fitted inhibition curve with a large enough effect; inconclusive = small, poorly fitted or top-dose-only effect; inactive = flat fitted curve, though single readings scatter.
Labels: 1 = active, -1 = inactive

>>> class_name("NCCC(O)(P(=O)(O)O)P(=O)(O)O")
-1
>>> class_name("CC(C)(C)CC(C)(C)c1ccc(OCCOCC[N+](C)(C)Cc2ccccc2)cc1")
1
>>> class_name("Cc1c(C(C)C)c(=O)n(-c2ccccc2)n1C")
-1
>>> class_name("CCCCCCCCCCCCCCCCOP(=O)([O-])OCC[N+](C)(C)C")
-1
>>> class_name("CC(=O)N/N=C/c1ccc([N+](=O)[O-])o1")
-1
>>> class_name("C[C@@H]1C(=O)NC2=Nc3cccc(Cl)c3CN21")
-1
>>> class_name("CC(O)(P(=O)(O)O)P(=O)(O)O")
-1
>>> class_name("CCCCCCCCCCCCCCCC[N+](C)(C)CC")
1
>>> class_name("O=C(Nc1ccc(Cl)c(Cl)c1)C1CC1")
-1
>>> class_name("CC(=O)Oc1ccc(C(c2ccc(OC(C)=O)cc2)c2ccccn2)cc1")
-1
>>> class_name("O=C(O)CCCCC(=O)O")
-1
>>> class_name("O=C(O)CNC(=O)c1ccccc1")
-1
>>> class_name("Oc1ccc(Cl)c2cccnc12")
-1
>>> class_name("Cc1c(C)n(Cc2ccccc2)c2ccc(C(=O)OCCN(C)C)cc12")
-1
>>> class_name("Cc1cc(O)c(C(C)C)cc1Cl")
-1
>>> class_name("CCN(CC)C(=O)N1CCN(C)CC1")
-1
>>> class_name("C[N+]1(CCCCC[N+]2(C)CCCC2)CCCC1")
-1
>>> class_name("CN=C(NC#N)NCCSCc1csc(N=C(N)N)n1")
-1
>>> class_name("COc1cc(NS(C)(=O)=O)ccc1Nc1c2ccccc2nc2ccccc12")
1
>>> class_name("COc1cc2c(cc1OC)C(C(C(=O)N(CCc1ccc(OC)c(OC)c1OC)CCc1ccc(OC)c(OC)c1OC)c1ccccc1)=NCC2 (stereo unspecified)")
1
>>> class_name("CCCCOc1ccc(C(=O)CCN2CCCCC2)cc1")
-1
>>> class_name("CC(=O)Nc1c(I)cc(I)c(C(=O)O)c1I")
-1
>>> class_name("N[C@H](CO)C(=O)O")
-1
>>> class_name("CCCCCCc1ccc(O)cc1O")
-1
>>> class_name("Nc1ccc(C(=O)O)cc1")
-1
>>> class_name("COCc1c(C(C)C)nc(C(C)C)c(/C=C/[C@@H](O)C[C@@H](O)CC(=O)O)c1-c1ccc(F)cc1")
-1

* * *

# PROTOCOL_DESCRIPTION: Cell Viability - LYMP1-002 - Assay at 24 hr (AID 993)
# SETUP_CONDITIONS: LYMP1-002 lymphoblastoid cells viability; series mostly up to 92.2 µM
Calls of active or inactive are those of the source. The call rests on the fitted dose curve; in most records, active means well fitted cell-killing curve with a large enough effect; inconclusive means small, poorly fitted or top-dose-only effect; inactive means flat fitted curve, though single readings scatter.
Labels: yes (1) (active), no (0) (inactive)

>>> class_name("O=C1OC(c2ccc(O)cc2)(c2ccc(O)cc2)c2ccccc21")
"no (0)"
>>> class_name("Oc1ccc(O)cc1")
"yes (1)"
>>> class_name("COc1cccc2c1C(=O)c1c(O)c3c(c(O)c1C2=O)C[C@@](O)(C(=O)CO)C[C@@H]3O[C@H]1C[C@H](N)[C@H](O)[C@H](C)O1")
"yes (1)"
>>> class_name("CC/C(=C(/CC)c1ccc(O)cc1)c1ccc(O)cc1")
"no (0)"
>>> class_name("COc1cccc2c1C(=O)c1c(O)c3c(c(O)c1C2=O)C[C@@](O)(C(C)=O)C[C@@H]3O[C@H]1C[C@H](N)[C@H](O)[C@H](C)O1")
"yes (1)"
>>> class_name("O=c1ccc2ccccc2o1")
"no (0)"
>>> class_name("C[C@]12CC[C@@H]3c4ccc(O)cc4CC[C@H]3[C@@H]1CC[C@@H]2O")
"no (0)"
>>> class_name("COC1=CC(=O)C[C@@H](C)[C@]12Oc1c(Cl)c(OC)cc(OC)c1C2=O")
"no (0)"
>>> class_name("Nc1ccc(C(=O)O)cc1")
"no (0)"
>>> class_name("C=C(CC)C(=O)c1ccc(OCC(=O)O)c(Cl)c1Cl")
"no (0)"
>>> class_name("CCCCCCc1ccc(O)cc1O")
"no (0)"

* * *

# PROTOCOL_DESCRIPTION: Cellular Toxicity (caspase-3) H-4-II-E (AID 663);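 for caspase-3 activation: cells exposed to compound for 16 hr before readout; 0% = DMSO basal and 100% = 100 µM tamoxifen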
# SETUP_CONDITIONS: H-4-II-E rat hepatoma; caspase-3 activation; series mostly up to 92.2 µM
Inconclusive results are not listed. Active and inactive are the calls of the source. Calls come from the whole dose curve; as a rule, active = well fitted activation curve with a large enough effect; inconclusive = small, poorly fitted or top-dose-only effect; inactive = flat fitted curve, though single readings scatter. Numbered stars: 1 amine (or outer) side, 2 acyl side, 3 side chain; on linkers, the order of the positions; unused ones are H or OH. Bridge positions count the residues as written; N and C are the ends. Square brackets hold non-standard residues; d marks the D form. Peptide text beside a SMILES is read from it. I, II: the chains in the order shown. Actinocin(9to1) = Cc1c2oc3c(C)ccc(C(=O)[*:1])c3nc-2c(C(=O)[*:2])c(N)c1=O; NMeV = CN[C@H](C(=O)O)C(C)C; Sar = CNCC(=O)O
Labels: active, inactive

>>> class_name("O=C(O)CCCCC(=O)O")
"inactive"
>>> class_name("Cc1c2oc3c(C)ccc(C(=O)N[C@@H]4C(=O)N[C@H](C(C)C)C(=O)N5CCC[C@H]5C(=O)N(C)CC(=O)N(C)[C@@H](C(C)C)C(=O)O[C@@H]4C)c3nc-2c(C(=O)N[C@@H]2C(=O)N[C@H](C(C)C)C(=O)N3CCC[C@H]3C(=O)N(C)CC(=O)N(C)[C@@H](C(C)C)C(=O)O[C@@H]2C)c(N)c1=O (I: T[dV]P[Sar][NMeV] / II: T[dV]P[Sar][NMeV]; ester I:1-I:C, II:1-II:C; linker I:N-II:N via Actinocin(9to1))")
"active"
>>> class_name("CC(=O)O[C@]1(C(C)=O)CC[C@H]2[C@@H]3C[C@H](C)C4=CC(=O)CC[C@]4(C)[C@H]3CC[C@@]21C")
"inactive"
>>> class_name("CC(O)C(=O)O (stereo not drawn)")
"inactive"
>>> class_name("COc1cccc2c1C(=O)c1c(O)c3c(c(O)c1C2=O)C[C@@](O)(C(=O)CO)C[C@@H]3O[C@H]1C[C@H](N)[C@H](O)[C@H](C)O1")
"active"
>>> class_name("Nc1ccc(C(=O)O)cc1")
"inactive"
>>> class_name("Oc1c(Cl)cc(Cl)cc1Sc1cc(Cl)cc(Cl)c1O")
"inactive"
>>> class_name("O=c1ccc2ccccc2o1")
"inactive"
